We begin with a simple list: items and their reported pIC50.
subject-of-test: Vps34 (Homo sapiens, UniProt Q8NEB9)
Sequence (Q8NEB9 whole entry, species assumed): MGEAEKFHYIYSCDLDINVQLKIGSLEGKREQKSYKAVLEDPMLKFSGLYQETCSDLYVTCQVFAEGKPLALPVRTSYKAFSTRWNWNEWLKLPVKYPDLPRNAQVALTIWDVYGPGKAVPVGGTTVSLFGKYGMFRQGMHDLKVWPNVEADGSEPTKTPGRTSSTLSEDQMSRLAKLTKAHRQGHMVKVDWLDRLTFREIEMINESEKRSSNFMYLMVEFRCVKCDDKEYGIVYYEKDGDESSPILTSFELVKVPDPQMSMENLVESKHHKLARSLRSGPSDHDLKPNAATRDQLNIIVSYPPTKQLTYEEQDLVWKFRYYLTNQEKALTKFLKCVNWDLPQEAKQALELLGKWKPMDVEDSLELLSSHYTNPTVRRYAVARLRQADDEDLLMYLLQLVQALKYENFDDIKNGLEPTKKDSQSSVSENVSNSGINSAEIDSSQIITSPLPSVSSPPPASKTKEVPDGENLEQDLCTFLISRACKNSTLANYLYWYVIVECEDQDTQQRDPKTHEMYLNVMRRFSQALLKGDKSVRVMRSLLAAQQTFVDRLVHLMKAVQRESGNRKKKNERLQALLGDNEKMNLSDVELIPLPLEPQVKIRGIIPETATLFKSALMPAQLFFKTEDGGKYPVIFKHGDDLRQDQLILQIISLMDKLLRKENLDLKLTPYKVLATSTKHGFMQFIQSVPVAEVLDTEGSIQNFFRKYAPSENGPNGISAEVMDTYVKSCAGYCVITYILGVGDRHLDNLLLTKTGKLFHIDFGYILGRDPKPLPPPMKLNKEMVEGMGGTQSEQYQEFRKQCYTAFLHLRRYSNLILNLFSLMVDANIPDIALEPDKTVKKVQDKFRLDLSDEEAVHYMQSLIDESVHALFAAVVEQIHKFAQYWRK
test-summary: Kinase Glo Luminescent Kinase Assay (Kglo), assay C
Assay type: biochemical
condition-description: read-out: Assay C VPS34 IC50
pIC50: −log10 of the molar value.

The cases that follow already have their pIC50 on record.
[
  {
    "molecule": "Cc1ccc(S(=O)(=O)NCCC(C)(C)O)cc1-c1cnc(N)c(-c2cnn(C)n2)n1",
    "subject-of-test": "Vps34 (Homo sapiens, UniProt Q8NEB9)",
    "pIC50": "< 5.00"
  },
  {
    "molecule": "CCOc1ccc(-c2nc(-c3cc(S(=O)(=O)NCCC(C)(C)O)ccc3C)cnc2N)cn1",
    "subject-of-test": "Vps34 (Homo sapiens, UniProt Q8NEB9)",
    "pIC50": "< 5.04"
  },
  {
    "molecule": "Cc1ccc(S(=O)(=O)N[C@H](C#N)CO)cc1-c1cnc(N)c(-n2cncn2)n1",
    "subject-of-test": "Vps34 (Homo sapiens, UniProt Q8NEB9)",
    "pIC50": "< 5.00"
  },
  {
    "molecule": "Cc1ccc(S(=O)(=O)NCCC(C)(C)O)cc1-c1cnc(N)c(-c2cnc(Cl)cc2C)n1",
    "subject-of-test": "Vps34 (Homo sapiens, UniProt Q8NEB9)",
    "pIC50": "< 5.04"
  },
  {
    "molecule": "Cc1cc(-c2nc(-c3cc(S(=O)(=O)NCCN)ccc3C)cnc2N)ccn1",
    "subject-of-test": "Vps34 (Homo sapiens, UniProt Q8NEB9)",
    "pIC50": "< 5.04"
  }
]

Prompt line: What does the data say about its pIC50? Entry: Cc1cc(-c2nc(-c3cc(S(=O)(=O)NC4CCOCC4)ccc3C)cnc2N)ccn1
Response line: < 5.04

Prompt line: What does the data say about its pIC50? Entry: Cc1cc(-c2nc(-c3cc(S(=O)(=O)NC4CCN(C)CC4)ccc3C)cnc2N)ccn1
Response line: < 5.04

Prompt line: What does the data say about its pIC50? Entry: Cc1cc(F)c(S(=O)(=O)NCCC(C)(C)O)cc1-c1cnc(N)c(-n2cncn2)n1
Response line: < 5.04

Prompt line: What does the data say about its pIC50? Entry: Cc1noc(-c2nc(-c3cc(S(=O)(=O)N[C@H]4CC[C@H](O)CC4)ccc3C)cnc2N)n1
Response line: < 5.04

Prompt line: What does the data say about its pIC50? Entry: Cc1ccc(S(=O)(=O)NC(C)CO)cc1-c1cnc(N)c(-n2cncn2)n1 (centres unmarked)
Response line: < 5.00

Prompt line: What does the data say about its pIC50? Entry: Cc1ccc(S(=O)(=O)NCC(C)(C)O)cc1-c1cnc(N)c(-c2cnn(CC(F)(F)F)n2)n1
Response line: < 5.00
